- Measured On: T1, His-tagged cynomolgus monkey TIGIT (Acro Biosystems #TIT-05223) (cynomolgus monkey, UniProt A0A7N9I9V4 89-209)
- T1 construct: Bought protein; also called cyno TIGIT; cynomolgus TIGIT; not shown: His tag
- Test Method Notes: ELISA, coated His-TIGIT, 1 ug/ml
Metric: Elisa OD450 (OD450)
Just the number please, in OD450, no unit attached.

- Binder: "43645p1.B2 (scFv, V domains shown) VH: EVQLLESGGGLVQPGGSLRLSCATSGFTFSSYWMSWVRQAPGKGLEWVSGIHISDSTYYADSVKGRFTISRDNSKNTLYLQMNSLRAEDTAVYYCAKGHTVLQYGMDVWGQGTTVTVSS VL: QSGLTQPPSASGTPGQRVTISCSGDISNTRNNYVSWYQQLPGTAPKLLIYGNHQRPSGVPDRFSGSKSATSASLAISGLQSEDEADYHCGTWDNTLNAWVFGGGTKLTVL"
  Quantity Unit: "OD450"
  Elisa OD450: 1.61
- Binder: "43586p2.B02 (scFv, V domains shown) VH: EVQLLESGGGLVQPGGSLRLSCAASGFTFTSYAMSWVSQAPGKGLEWVAGISYDGSSKYYADSVKGRLTISRDNSKNTLYLQMNSLRAEDTAIYYCAKHLTGGTTDYYYYAMDVWGQGTTVTVSS VL: QSVLTQPPSASGTPGQRVTISCSGSRSNIGTNRYVHWYQQLPGTAPKLLIYGNHQRPSGVPDRFSGSKSGTSASLAISGLQSEDEADYYCAAWDDSLSAWVFGGGTKLTVL"
  Quantity Unit: "OD450"
  Elisa OD450: 1.59

Now examine the next entry.
Q. Identify measured Elisa OD450 corresponding to 43586p1.1.C2 (scFv, V domains shown) VH: EVQLLESGGGLVQPGGSLRLSCAASGFTFSDYYMNWVRQAPGKGLEWVSSINWNGGTTYYADSVKGRFTISRDNSRNTLYLQMNSLRAEDTAVYYCAKDQNWNFYYGMDVWGQGTTVTVSS VL: QSVLTQPPSASGTPGQRVTISCSGGSSNIGTNYVSWYQQLPGTAPKLLLYKEDQRPSGVPDRFSGSKSGTSASLAISGLQSEDEADYYCATWDGSLRSWVFGGGTKLTVL
A. 0.817
